Target: mineralocorticoid receptor (MR) (Rattus norvegicus)
Sequence (P22199 1-981): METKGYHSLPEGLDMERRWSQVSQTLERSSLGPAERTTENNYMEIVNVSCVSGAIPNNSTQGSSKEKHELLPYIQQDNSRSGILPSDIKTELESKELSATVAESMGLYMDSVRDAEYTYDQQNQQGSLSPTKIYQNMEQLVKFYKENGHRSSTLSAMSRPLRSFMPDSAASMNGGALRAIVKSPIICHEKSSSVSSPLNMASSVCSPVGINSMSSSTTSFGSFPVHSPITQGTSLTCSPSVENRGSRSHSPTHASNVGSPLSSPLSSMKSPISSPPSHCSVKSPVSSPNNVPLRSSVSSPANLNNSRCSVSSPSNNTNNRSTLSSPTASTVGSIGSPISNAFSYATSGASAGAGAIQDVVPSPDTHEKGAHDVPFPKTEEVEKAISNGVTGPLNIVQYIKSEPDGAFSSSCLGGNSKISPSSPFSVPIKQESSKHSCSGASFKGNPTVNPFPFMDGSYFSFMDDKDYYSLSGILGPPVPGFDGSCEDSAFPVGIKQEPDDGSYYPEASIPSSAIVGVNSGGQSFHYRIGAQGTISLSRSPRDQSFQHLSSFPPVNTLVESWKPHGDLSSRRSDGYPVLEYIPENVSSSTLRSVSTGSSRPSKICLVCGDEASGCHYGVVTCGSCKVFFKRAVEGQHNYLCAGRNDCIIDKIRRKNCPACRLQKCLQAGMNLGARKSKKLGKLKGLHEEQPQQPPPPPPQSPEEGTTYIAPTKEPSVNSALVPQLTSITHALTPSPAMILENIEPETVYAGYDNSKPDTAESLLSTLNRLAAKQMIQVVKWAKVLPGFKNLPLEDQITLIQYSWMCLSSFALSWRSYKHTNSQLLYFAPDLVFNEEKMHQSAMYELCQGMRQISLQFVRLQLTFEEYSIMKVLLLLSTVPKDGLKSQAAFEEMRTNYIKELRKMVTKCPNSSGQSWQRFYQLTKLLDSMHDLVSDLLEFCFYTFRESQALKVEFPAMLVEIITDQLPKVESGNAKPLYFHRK
Listed compounds paired with reported pIC50
By convention, pIC50 is the negative base-10 log of a molar concentration.

Answered cases to consult:
compound	pIC50
CC(=O)S[C@@H]1CC2=CC(=O)CC[C@]2(C)[C@H]2CC[C@@]3(C)[C@@H](CC[C@@]34CCC(=O)O4)[C@H]12 [Spironolactone, reference compound]	8.22
CC[C@H]1CC[C@H]2[C@@H]3CCC4=CC(=O)C=C[C@]4(C)[C@H]3[C@@H](O)C[C@]12C [synthetic example 14, (11β)-11-hydroxypregna-1,4-dien-3-one]	9.92
C[C@]12C[C@H](O)[C@H]3[C@@H](CCC4=CC(=O)CC[C@@]43C)[C@@H]1CC[C@@H]2C(=O)CO [Corticosterone, reference compound]	8.30

Now turn to the next compound.
Enquiry: Data request, read-out pIC50, for C=C(C)[C@H]1CC[C@H]2[C@@H]3CCC4=CC(=O)CC[C@]4(C)[C@H]3[C@@H](O)C[C@]12C [synthetic example 1]
Return: 9.36
